// reported MIC for each item listed
Test system: H. somni
methodNotes: In-vitro MIC model (CLSI broth micro-dilution)
runConditions: Histophilus somni
parameter: MIC

INSERT INTO measurements (compound, parameter, valueobserved) VALUES
  ('CCCNC[C@]1(O)[C@H](C)O[C@@H](O[C@H]2[C@H](C)[C@@H](O[C@@H]3O[C@H](C)C[C@H](N(C)C(=O)Nc4ccccc4)[C@H]3O)[C@](C)(O)C[C@@H](C)CN[C@H](C)[C@@H](O)[C@](C)(O)[C@@H](CC)OC(=O)[C@@H]2C)C[C@@]1(C)OC [Example H-91]', 'MIC', '> 64 µg/mL'),
  ('CCCNC[C@]1(O)[C@H](C)O[C@@H](O[C@H]2[C@H](C)[C@@H](O[C@@H]3O[C@H](C)C[C@H](N(C)C(=O)N(C)c4ccccc4)[C@H]3O)[C@](C)(O)C[C@@H](C)CN[C@H](C)[C@@H](O)[C@](C)(O)[C@@H](CC)OC(=O)[C@@H]2C)C[C@@]1(C)OC [Example H-11]', 'MIC', '> 64 µg/mL'),
  ('CS(=O)(=O)c1ccc([C@@H](O)[C@@H](CF)NC(=O)C(Cl)Cl)cc1 [florfenicol]', 'MIC', '0.12 to 2 µg/mL'),
  ('CCN1CCN(c2cc3c(cc2F)c(=O)c(C(=O)O)cn3C2CC2)CC1 [enrofloxacin]', 'MIC', '0.06 to 1 µg/mL');

Data provenance: patent US12295936B2
